stated conditions: in n-propanol, 328.95 K
assay metric: solubility (mole fraction)
One number for each entry.

// query solubility (mole fraction) value for entry "COC(=O)/C=C/C(=O)OC" 0.0535

----------
stated conditions: in propylene glycol, 347.15 K
assay metric: solubility (mole fraction)
Answers are plain numbers.

Suppose we examine the compound "COC(=O)/C=C/C(=O)OC" ; what solubility (mole fraction) value has been reported? 0.073

----------
stated conditions: in water, 337.05 K
assay metric: solubility (mole fraction)
Give bare numbers.

Endpoint output: solubility (mole fraction) of "COC(=O)/C=C/C(=O)OC" . Value? 0.00113

----------
stated conditions: in water, 340.65 K
assay metric: solubility (mole fraction)
Give bare numbers.

Name the recorded solubility (mole fraction) for "COC(=O)/C=C/C(=O)OC" . 0.00132

----------
stated conditions: in isopropanol, 316.85 K
assay metric: solubility (mole fraction)
One number for each entry.

I am curious: what solubility (mole fraction) value has been reported for "COC(=O)/C=C/C(=O)OC" ? 0.025

----------
stated conditions: in methanol, 337.65 K
assay metric: solubility (mole fraction)
One number for each entry.

Which solubility (mole fraction) is reported for this compound? "COC(=O)/C=C/C(=O)OC" 0.081

----------
stated conditions: in isopropanol, 295.8 K
assay metric: solubility (mole fraction)

I am curious: what solubility (mole fraction) value has been reported for "COC(=O)/C=C/C(=O)OC" ? 0.00533

----------
stated conditions: in ethanol, 336.05 K
assay metric: solubility (mole fraction)
Give bare numbers.

Entry under review: "COC(=O)/C=C/C(=O)OC" . Reported solubility (mole fraction)? 0.0751

----------
stated conditions: in methanol, 325.93 K
assay metric: solubility (mole fraction)
Give bare numbers.

Can you look up the measured solubility (mole fraction) of "COC(=O)/C=C/C(=O)OC" for me? 0.04

----------
stated conditions: in isopropanol, 335.8 K
assay metric: solubility (mole fraction)

Tell me the measured solubility (mole fraction) of "COC(=O)/C=C/C(=O)OC" , please. 0.0997
